assayed_system: B1R of the rat (Rattus norvegicus)
Construct: expressed in transfected cells; host or cells: CHO K1 cells (Chinese hamster ovary), stably transfected
Sequence (P97583 1-337): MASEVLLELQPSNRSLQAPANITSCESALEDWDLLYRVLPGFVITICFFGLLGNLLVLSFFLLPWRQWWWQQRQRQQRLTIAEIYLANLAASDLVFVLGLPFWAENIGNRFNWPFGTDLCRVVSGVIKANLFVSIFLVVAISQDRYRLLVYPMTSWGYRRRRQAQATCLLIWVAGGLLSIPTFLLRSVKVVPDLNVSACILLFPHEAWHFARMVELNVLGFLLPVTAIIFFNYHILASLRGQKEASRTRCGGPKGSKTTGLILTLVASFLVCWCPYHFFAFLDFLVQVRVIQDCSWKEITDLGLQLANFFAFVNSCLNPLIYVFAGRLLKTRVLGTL
test: FLIPR Ca2+ functional assay, B1R antagonism, rat B1R in CHO K1 cells
Format: cell-based
condition_details: test substance 10 μM; rB1R CHO K1 cells; agonist Des-Arg9 bradykinin at EC80; % of maximum achievable inhibition
assay_endpoint: inhibition at 10 µM (%)
Hi! Could you send only the number? It should be in %, unit omitted.

Query: Could you share what inhibition at 10 µM was measured for COc1cc(C)c(S(=O)(=O)N2CCn3cccc3C2CC(=O)N2CCC(CCN3CCCCC3)CC2)c(C)c1 (centres unmarked) , tested on B1R of the rat (Rattus norvegicus)?
Response: 73.5

Query: Request body: readout inhibition at 10 µM, system B1R of the rat (Rattus norvegicus), query CN(Cc1ccc2c(c1)CCC(NC(=O)CC1c3cccn3CCN1S(=O)(=O)c1cccc(C(F)(F)F)c1)C2)C(C)(C)C (centres unmarked) . Return the value.
Response: 102

Query: Return inhibition at 10 µM measured with B1R of the rat (Rattus norvegicus) given this compound: Cc1ccc(S(=O)(=O)N2CCn3cccc3C2CC(=O)N[C@H](C)c2ccc(CNC(C)(C)C)cc2)cc1 (some centres unmarked)
Response: 29

Query: Which inhibition at 10 µM is reported with B1R of the rat (Rattus norvegicus) for this entry: Cc1cc(S(=O)(=O)N2CCn3cccc3C2CC(=O)N(C)C(CN2CCN(C)CC2)c2ccccc2)c(C)cc1Cl (centres unmarked) ?
Response: 5.28

Query: State its inhibition at 10 µM on B1R of the rat (Rattus norvegicus): COc1cc(C)c(S(=O)(=O)N2CCn3cccc3C2CC(=O)N2CCN(C3CCN(C)CC3)CC2)c(C)c1 (centres unmarked)
Response: 100

Query: Item O=C(CC1c2cccn2CCN1S(=O)(=O)c1cccc(Cl)c1Cl)NC1CCc2cc(CN3CCCCC3)ccc2C1 (centres unmarked) with B1R of the rat (Rattus norvegicus) - inhibition at 10 µM?
Response: 100

Query: Entry COc1cc(C)c(S(=O)(=O)N2CCn3cccc3C2COCC(=O)N2CCC(OCCN3CCCC3)(c3cccnc3)CC2)c(C)c1 (centres unmarked) , system B1R of the rat (Rattus norvegicus): what inhibition at 10 µM was measured?
Response: 114

Query: Form field: inhibition at 10 µM recorded for COc1cc(C)c(S(=O)(=O)N2CCn3cccc3C2COCC(=O)N2CCC3(CC2)CCN(c2ccncc2)C3)c(C)c1 (centres unmarked) with B1R of the rat (Rattus norvegicus) (enter value)
Response: 104

====

Overview of recorded inhibition at 10 µM for various compounds
assayed_system: B1R of the rat (Rattus norvegicus)
Construct: expressed in transfected cells; host or cells: CHO K1 cells (Chinese hamster ovary), stably transfected
test: FLIPR Ca2+ functional assay, B1R antagonism, rat B1R in CHO K1 cells
Type: cell-based
condition_details: test substance 10 μM; rB1R CHO K1 cells; agonist Des-Arg9 bradykinin at EC80; % of maximum achievable inhibition
Unit % implied. Number only.

compound: O=C(CC1c2cccn2CCN1S(=O)(=O)c1cccc(C(F)(F)F)c1)NC1CCCc2cc(CN3CCOCC3)ccc21 (stereo not drawn)
assayed_system: B1R of the rat (Rattus norvegicus)
inhibition at 10 µM (%): 102

Query: Which measured inhibition at 10 µM value corresponds to Cc1ccc(S(=O)(=O)N2CCn3cccc3C2CC(=O)NC2CCCc3cc(CN4CCCc5ccccc54)ccc32)cc1 (stereo not drawn) ?
Response: 74.7
